system: HIV-1; assay: Inhibition of HIV-1 replication in Jurkat cells (RT activity in supernatant), compound added at time zero or 4 h post-infection; format: cell-based; conditions: Human immunodeficiency virus 1, compound added at time zero or 4 h post-infection, read-out: 50% inhibition of RT activity relative to non-treated HIV-infected cells
Recorded metric: IC50

# input Given CCOC(=O)P(=O)(O)OC[C@H]1O[C@@H](n2cc(C)c(=O)[nH]c2=O)C[C@@H]1N=[N+]=[N-] [Example 1] , state its recorded IC50.
# output ~500 nM

---

biological target: HIV-1 RT (Human immunodeficiency virus type 1 group M subtype B)
pIC50: −log10 of the molar value.
Recorded metric: pIC50

# input Record lookup: for HIV-1 RT (Human immunodeficiency virus type 1 group M subtype B), what pIC50 belongs to CCOC(=O)P(=O)(O)OC[C@H]1O[C@@H](n2cc(C)c(=O)[nH]c2=O)C[C@@H]1N=[N+]=[N-] [Example 1] ?
# output ~4.30

---

experiment: Inhibition of growth of human peripheral blood leukocytes; assay type: cell-based; details: at 10^-4 M, H-PBLs, read-out: inhibition of PBL growth
inhibition at 100 µM: recorded values
A number alone suffices; assume %.

[
  {
    "Molecule": "CCOC(=O)P(=O)(O)OC[C@H]1O[C@@H](n2cc(C)c(=O)[nH]c2=O)C[C@@H]1N=[N+]=[N-]",
    "inhibition at 100 µM [%]": 20
  }
]

# input Given Cc1cn([C@H]2C[C@H](N=[N+]=[N-])[C@@H](CO)O2)c(=O)[nH]c1=O [AZT, 3'-azidothymidine, reference compound] , state its recorded inhibition at 100 µM.
# output 80

---

experiment: Cytotoxicity in non-infected Jurkat cells, 4 days exposure; assay type: cell-based; settings: human, up to 10^-4 M, read-out: decrease in cell viability
Recorded metric: cytotoxicity at 96 h, 100 µM

# input Given CCOC(=O)P(=O)(O)OC[C@H]1O[C@@H](n2cc(C)c(=O)[nH]c2=O)C[C@@H]1N=[N+]=[N-] [Example 1] , state its recorded cytotoxicity at 96 h, 100 µM.
# output < 10%

---

system: HIV-1; assay: Inhibition of HIV-1 replication in cultured human peripheral blood leukocytes; type: cell-based; details: Human immunodeficiency virus 1, Leukocyte; H-PBLs; added 4 hours before virus, measured at 4 days; read-out: 50% inhibition of viral replication
pIC50: −log10 of the molar value.
pIC50: recorded values

# input Given CCOC(=O)P(=O)(O)OC[C@H]1O[C@@H](n2cc(C)c(=O)[nH]c2=O)C[C@@H]1N=[N+]=[N-] [Example 1] , state its recorded pIC50.
# output ~8.00

# input Entry to check: Cc1cn([C@H]2C[C@H](N=[N+]=[N-])[C@@H](CO)O2)c(=O)[nH]c1=O [AZT, 3'-azidothymidine, reference compound]
# output ~8.00
